tested on: CP191; experiment: qHTS profiling for inhibitors of Plasmodium falciparum proliferation (AID 504749); also: nearly all actives have a fitted effect of over 60% in size; conditions: P. falciparum in erythrocytes, SYBR Green DNA, 72 h; series mostly up to 28.7 µM
Records with an inconclusive call do not appear. Calls of active or inactive are those of the source. Calls follow the shape of the dose curve; as a rule, active = well fitted inhibition curve with a large enough effect; inconclusive = small, poorly fitted or top-dose-only effect; inactive = flat fitted curve, though single readings scatter.
Parameter call: string, one of active, inactive

C[C@]12CC[C@H](O)CC1=CCC1C2CC[C@]2(C)C(=O)CC[C@@H]12 (some centres undefined) = inactive
C[C@H](N)[C@@H](O)c1ccccc1 = inactive
C[C@]12CC[C@H](OS(=O)(=O)O)CC1=CCC1C2CC[C@]2(C)C(=O)CC[C@@H]12 (some centres undefined) = inactive
ClC1=C(Cl)C2(Cl)C3C4CC(C5OC45)C3C1(Cl)C2(Cl)Cl (centres undefined) = inactive
CN[C@@H](C)[C@H]1CC[C@@H](N)[C@@H](O[C@@H]2[C@@H](O)[C@@H](O[C@H]3OC[C@@](C)(O)[C@@H](NC)[C@@H]3O)[C@H](N)C[C@@H]2N)O1 (tested in a mixture with another compound) = inactive

[ask] // outcome(item) with item = Oc1ccc2c3c1O[C@H]1[C@@H](O)CC[C@@]4(O)C(C2)N(CC2CCC2)CCC314 (some centres undefined)
[reply] inactive

[ask] // outcome(item) with item = `CC[C@@H]1[C@@H]2C[C@H]3[C@H]4N(C)c5ccccc5[C@@]45C[C@@H]([C@@H]2[C@@H]5O)N3[C@H]1O`
[reply] inactive

###

experiment: Cell Viability - LYMP2-020 (AID 986); conditions: series mostly up to 92.2 µM;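 also: cells exposed to compound for 24 h at 37 °C; nearly all actives have a fitted effect of over 55% in size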
Results filed as inconclusive are left out. Calls of active or inactive are those of the source. Calls come from the whole dose curve; as a rule, active = well fitted cell-killing curve with a large enough effect; inconclusive = small, poorly fitted or top-dose-only effect; inactive = flat fitted curve, though single readings scatter.
Parameter call: string, one of active, inactive

Study these solved cases before continuing.
COc1ccc(C=O)cc1OC = inactive
O=C(Cl)/C=C/C(=O)Cl = inactive
ClC(Cl)(Cl)c1ccccc1 = inactive
CCCCCCCCCc1ccc(O)cc1 = inactive
CCOP(=S)(OCC)SCSC(C)(C)C = inactive

[ask] // outcome(item) with item = `C/C=C/c1ccc2c(c1)OCO2`
[reply] inactive

[ask] // outcome(item) with item = `O=C(O)COc1ccc(Cl)cc1Cl`
[reply] inactive

[ask] // outcome(item) with item = `CN=C=S`
[reply] inactive

[ask] // outcome(item) with item = `N#CCCCl`
[reply] inactive

[ask] // outcome(item) with item = ClC1=C(Cl)C2(Cl)C3C4CC(C5OC45)C3C1(Cl)C2(Cl)Cl (stereo not given)
[reply] active

[ask] // outcome(item) with item = `Brc1ccccc1`
[reply] inactive

[ask] // outcome(item) with item = `CCCCOC(=O)c1ccccc1C(=O)OCCCC`
[reply] inactive

[ask] // outcome(item) with item = `COc1ccc(N)cc1`
[reply] inactive

[ask] // outcome(item) with item = `Cc1ccc([N+](=O)[O-])cc1C`
[reply] inactive

###

tested on: CP297; experiment: qHTS profiling for inhibitors of Plasmodium falciparum proliferation (AID 504749); also: nearly all actives have a fitted effect of over 60% in size; also: potency is read from the fitted curve at half-maximal effect; settings: P. falciparum in erythrocytes, SYBR Green DNA, 72 h; series mostly up to 28.7 µM
Inconclusive results are not listed. Activity calls are given as the source filed them. Calls follow the shape of the dose curve; as a rule, active = well fitted inhibition curve with a large enough effect; inconclusive = small, poorly fitted or top-dose-only effect; inactive = flat fitted curve, though single readings scatter.
VALUE TYPE: Potency

Some solved cases for reference:
O=c1ccc2cc(O[C@H]3O[C@@H](CO)[C@@H](O)[C@@H](O)[C@@H]3O)c(O)cc2o1 = inactive
CC(=O)OC1C[C@H](O[C@@H]2C(O)C[C@H](O[C@@H]3C(O)C[C@@H](OC4CC[C@]5(C)C(CCC6C5CC(O)[C@@]5(C)C(C7=CC(=O)OC7)CC[C@@]65O)C4)OC3C)OC2C)O[C@H](C)[C@H]1O[C@H]1OC(CO)C(O)C(O)C1O (stereo partly specified) = inactive
COc1ccc2c(c1OC)CN1CCc3cc4c(cc3[C@H]1C2)OCO4 = 1.81 µM (active)
CN(C)C(=O)Oc1cc(OC(=O)N(C)C)cc([C@@H](O)CNC(C)(C)C)c1 = inactive
CCN[C@]1(c2cccs2)CCCCC1=O = inactive

Next, consider the following compound.
[ask] Please provide the recorded Potency for `COc1cc(N)c(Cl)cc1C(=O)N[C@@H]1CN2CCC1CC2` , tested on CP297.
[reply] inactive
